Test system: IGROV1 ovarian
Experiment: NCI tumour cell line growth inhibition, 48 h; in the data active = GI50 below about 0.43 µM; inactive = the rest
Where a SMILES comes first, the peptide text is derived from it. The star is where a group is joined. Trt = c1ccc(C(c2ccccc2)(c2ccccc2)*)cc1; Cbz = O=C(OCc1ccccc1)*
Field 'call' accepts active, inactive

# molecule, target system, group
rows = [
    ("C=CC(C)(O)CC/C=C(\\CO)C(=O)OC1C(C)OC(O[C@](C)(C=C)CC/C=C(\\CO)C(=O)O[C@H]2C[C@@]3(C(=O)OC4OC(CO)C(O)C(O)C4OC4OC(C)C(OC5OC(CO)C(O)C5O)C(OC5OC(CO)C(O)C(O)C5O)C4O)C(CC2(C)C)C2=CCC4[C@@]5(C)CC[C@H](OC6OC(COC7OC(C)C(O)C(O)C7OC7OCC(O)C(O)C7O)C(O)C(O)C6NC(C)=O)C(C)(C)C5CC[C@@]4(C)[C@]2(C)C[C@H]3O)C(O)C1O (some centres not stated)", "IGROV1 ovarian", "inactive"),
    ("COc1ccc(C2=NC(c3ccc(Cl)cc3)C(c3ccc(Cl)cc3)N2C(=O)N2CCNC(=O)C2)c(OC(C)C)c1 (configuration not stated)", "IGROV1 ovarian", "inactive"),
    ("COc1cccc2c1cc1c3c(cc4c(c32)OCO4)C(=O)N1", "IGROV1 ovarian", "inactive"),
]

How was COc1cc(Cn2c(-c3ccccc3)cc3c2-c2oncc2CC3)cc(OC)c1 classified in this test?
active

How was O=C(/C=C/c1ccc([N+](=O)[O-])cc1)c1cccc(Nc2nc(Nc3ccccc3)nc(Nc3ccccc3)n2)c1 classified in this test?
inactive

How was COC(=O)C(CSC(c1ccccc1)(c1ccccc1)c1ccccc1)NC(=O)C(CC(N)=O)NC(=O)OCc1ccccc1 (stereo not drawn) (Cbz-Asn-Cys(Trt)-OMe; configuration not given here) classified in this test?
inactive

How was C=C(C)[C@@H]1CC[C@]2(CO)CC[C@]3(C)[C@H](CC[C@@H]4[C@@]5(C)CC[C@H](NCO)C(C)(C)[C@@H]5CC[C@]43C)[C@@H]12 classified in this test?
inactive

====

We begin with a simple list: items and their reported TGI.
System: LXFL 529 NSCLC
Experiment: NCI tumour cell line growth inhibition, 48 h

Some compounds with known TGI results, for comparison:
# compound, TGI
rows = [
    ("Cc1noc(/N=C2\\C=C(Nc3onc(C)c3C)C(=O)c3ccccc32)c1C", "> 100 µM"),
    ("c1ccc(-c2ccnc3c2ccc2c(-c4ccccc4)ccnc23)cc1", "11.5 µM"),
    ("O=S1(=O)c2ccccc2N=C(c2ccccc2Cl)CC1c1ccc(F)cc1 (stereo not drawn)", "31.6 µM"),
    ("CN1CN(C(=O)N2CN(C)C(=O)N(C)C2)CN(C)C1=O", "> 100 µM"),
    ("COc1ccc(C)cc1C1CCC(=O)O1 (stereo not drawn)", "> 100 µM"),
]

Check the records and state TGI for CN(C)CN(C)c1nc(N(C)C)nc(N(C)CN(C)C)n1
> 100 µM

Check the records and state TGI for COC(=O)C(C(=O)C(N)=O)c1csc(-n2nc(-c3ccccc3)cc2-c2ccccc2)n1 (stereo not drawn)
> 31.6 µM

Check the records and state TGI for COC(=O)/C(=N\Nc1nnc(C)n1N)C(C#N)c1ccccc1 (stereo not drawn)
> 100 µM
